# system-name: Glucocorticoid receptor (Homo sapiens, UniProt P04150)
# Sequence (P04150 whole entry): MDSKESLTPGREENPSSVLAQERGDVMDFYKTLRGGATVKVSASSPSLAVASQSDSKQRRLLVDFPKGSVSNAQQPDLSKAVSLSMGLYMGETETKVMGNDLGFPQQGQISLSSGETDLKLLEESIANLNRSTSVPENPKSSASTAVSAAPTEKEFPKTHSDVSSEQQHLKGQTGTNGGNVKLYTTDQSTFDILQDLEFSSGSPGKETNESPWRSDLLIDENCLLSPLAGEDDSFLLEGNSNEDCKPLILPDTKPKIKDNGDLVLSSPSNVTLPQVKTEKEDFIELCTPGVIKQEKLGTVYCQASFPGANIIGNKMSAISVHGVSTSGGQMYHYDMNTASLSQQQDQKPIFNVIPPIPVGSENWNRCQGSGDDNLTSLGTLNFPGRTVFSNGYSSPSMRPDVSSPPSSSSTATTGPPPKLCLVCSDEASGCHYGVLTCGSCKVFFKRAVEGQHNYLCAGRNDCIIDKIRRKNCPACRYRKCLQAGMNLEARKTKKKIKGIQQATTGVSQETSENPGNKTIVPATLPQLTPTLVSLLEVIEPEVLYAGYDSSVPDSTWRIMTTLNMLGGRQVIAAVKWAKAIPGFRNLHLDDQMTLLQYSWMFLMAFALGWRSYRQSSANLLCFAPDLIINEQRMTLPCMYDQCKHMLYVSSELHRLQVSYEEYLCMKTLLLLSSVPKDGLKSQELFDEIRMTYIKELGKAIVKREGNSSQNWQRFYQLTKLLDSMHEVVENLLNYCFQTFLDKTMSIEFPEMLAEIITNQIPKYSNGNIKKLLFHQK
# method: Agonist activity at glucocorticoid receptor in human A549 cells by NF-kappaB transrepression assay
# Assay type: functional, cell-based
Each item that follows carries a reported pIC50.
In textbook form, pIC50 equals minus log to base ten of the concentration in mol/L.

Use these answered entries as a reference point.
compound	system-name	pIC50
Cc1cc(C)c(S(=O)(=O)N[C@@H](C)CNc2cc(C)cc3c2cnn3-c2cccc(N[C@@H](C)C(N)=O)c2)c(C)c1	Glucocorticoid receptor (Homo sapiens, UniProt P04150)	9.30
Cc1cc(C)c(S(=O)(=O)N[C@@H](C)CNc2cc(C)cc3c2cnn3-c2ccc(N[C@@H](C)C(N)=O)cc2)c(C)c1	Glucocorticoid receptor (Homo sapiens, UniProt P04150)	8.10
Cc1cc(C)c(S(=O)(=O)N[C@@H](C)CNc2cc(C)cc3c2cnn3-c2cccc(NC(C)C)c2)c(C)c1	Glucocorticoid receptor (Homo sapiens, UniProt P04150)	9.90
CCCS(=O)(=O)N[C@@H](C)CNc1cc(C)cc2c1cnn2-c1cccc(C(=O)NC(C)C)c1	Glucocorticoid receptor (Homo sapiens, UniProt P04150)	7.70

Note: attention shifts to another entry.
[Q] Request - read-out pIC50 | tested on Glucocorticoid receptor (Homo sapiens, UniProt P04150) | molecule `Cc1cc(C)c(S(=O)(=O)N[C@@H](C)CNc2cc(C)cc3c2cnn3-c2cccc(NCC(N)=O)c2)c(C)c1`
[A] 9.60

###

# system-name: UniProt:P04150
# Sequence (P04150 whole entry): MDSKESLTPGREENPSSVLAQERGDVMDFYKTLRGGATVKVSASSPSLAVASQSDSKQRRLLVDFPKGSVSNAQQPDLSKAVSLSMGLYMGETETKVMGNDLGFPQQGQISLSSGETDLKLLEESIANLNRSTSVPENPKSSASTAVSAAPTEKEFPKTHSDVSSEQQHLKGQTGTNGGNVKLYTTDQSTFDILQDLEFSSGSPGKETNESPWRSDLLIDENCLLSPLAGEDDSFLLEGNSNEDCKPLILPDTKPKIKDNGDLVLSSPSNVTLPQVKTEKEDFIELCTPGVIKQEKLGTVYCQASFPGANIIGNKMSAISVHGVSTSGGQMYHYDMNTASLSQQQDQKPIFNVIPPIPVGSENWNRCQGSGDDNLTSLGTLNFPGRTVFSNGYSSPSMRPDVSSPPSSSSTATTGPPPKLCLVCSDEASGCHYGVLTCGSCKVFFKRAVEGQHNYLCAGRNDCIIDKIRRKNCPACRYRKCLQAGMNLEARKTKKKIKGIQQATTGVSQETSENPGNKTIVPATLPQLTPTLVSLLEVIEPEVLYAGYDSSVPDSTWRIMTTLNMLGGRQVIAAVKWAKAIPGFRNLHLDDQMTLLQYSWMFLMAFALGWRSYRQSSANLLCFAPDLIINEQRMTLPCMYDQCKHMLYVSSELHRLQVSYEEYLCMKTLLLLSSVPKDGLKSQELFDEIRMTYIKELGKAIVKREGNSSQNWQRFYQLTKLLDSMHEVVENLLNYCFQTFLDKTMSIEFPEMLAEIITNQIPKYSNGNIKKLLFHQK
# method: Displacement of fluorescent-labelled Dexamethasone from glucocorticoid receptor
attribute-measured: pIC50
In textbook form, pIC50 equals minus log to base ten of the concentration in mol/L.

Use these answered entries as a reference point.
compound	pIC50
COc1ccc(-n2ncc3c(NC[C@H](C)NS(=O)(=O)c4c(C)cc(C)cc4C)cc(C)cc32)cc1	7.80
CNc1ccc(-n2ncc3c(NC[C@H](C)NS(=O)(=O)c4c(C)cc(C)cc4C)cc(C)cc32)cc1	7.70
Cc1cc(C)c(S(=O)(=O)N[C@@H](C)CNc2cc(C)cc3c2cnn3-c2ccc(NCC(N)=O)cc2)c(C)c1	7.80
Cc1cc(NC[C@H](C)NS(=O)(=O)C2CC2)c2cnn(-c3cccc(C(=O)N[C@@H](C)C(N)=O)c3)c2c1	7.40
Cc1cc(NC[C@H](C)NS(=O)(=O)C2CC2)c2cnn(-c3cccc(C(=O)N4CCCC(CO)C4)c3)c2c1 (some centres not stated)	6.90

[Q] I would be grateful if you could share the reported pIC50 for Cc1cc(C)c(S(=O)(=O)N[C@@H](C)CNc2cc(C)cc3c2cnn3-c2cccc(N3CCCC(CO)C3)c2)c(C)c1 (stereo in doubt; 14l) .
[A] 7.60

[Q] I would be grateful if you could share the reported pIC50 for `Cc1cc(C)c(S(=O)(=O)N[C@@H](C)CNc2cc(C)cc3c2cnn3-c2cccc(N[C@H](C)C(N)=O)c2)c(C)c1` .
[A] 7.80
